- Test system: UMC-11
- measurement_description: relative viability (nuclei count vs DMSO), 5 days (fraction); higher = more cells survive
- assay_context: first compound 0.005 µM

compound: COc1cc2nccc(Oc3ccc(NC(=O)Nc4cc(C)on4)c(Cl)c3)c2cc1OC [Tivozanib] + COc1cccc2cc(-c3nc([C@H]4CC[C@H](C(=O)O)CC4)n4ncnc(N)c34)[nH]c12 [OSI-027] (partner 0.5 µM)
study_system: UMC-11
relative viability: 0.491
//
compound: COc1cc2nccc(Oc3ccc(NC(=O)Nc4cc(C)on4)c(Cl)c3)c2cc1OC [Tivozanib] + CS(=O)(=O)N1CCN(Cc2cc3nc(-c4cccc5[nH]ncc45)nc(N4CCOCC4)c3s2)CC1 [Pictilisib] (partner 1 µM)
study_system: UMC-11
relative viability: 0.793
//
compound: Nc1ccn([C@@H]2O[C@H](CO)[C@@H](O)[C@@H]2O)c(=O)n1 [Cytarabine] + CCNC(=O)c1noc(-c2cc(C(C)C)c(O)cc2O)c1-c1ccc(CN2CCOCC2)cc1 [Luminespib] (partner 0.01 µM)
study_system: UMC-11
relative viability: 0.792

###

- Tested on: NCI-H1355
- measurement_description: relative viability (nuclei count vs DMSO), 5 days (fraction); higher = more cells survive
- assay_context: first compound 0.08 µM
The following compounds are shown together with reported relative viability values.
metric_name: relative viability

compound: O=c1[nH]c2ccccc2n1C1CCN(CCCC(c2ccc(F)cc2)c2ccc(F)cc2)CC1 [Pimozide] + O=C(c1cc(Cc2n[nH]c(=O)c3ccccc23)ccc1F)N1CCN(C(=O)C2CC2)CC1 [Olaparib] (partner 8 µM)
value: 0.717
//
compound: Cc1cnc(-c2cnc(NCCNc3ccc(C#N)cn3)nc2-c2ccc(Cl)cc2Cl)[nH]1 + CCNC(=O)c1noc(-c2cc(C(C)C)c(O)cc2O)c1-c1ccc(CN2CCOCC2)cc1 [Luminespib] (partner 0.01 µM)
value: 0.704
//
compound: O=c1[nH]c2ccccc2n1C1CCN(CCCC(c2ccc(F)cc2)c2ccc(F)cc2)CC1 [Pimozide] + C[C@]1(O)C[C@@H](c2nc(-c3ccc4ccc(-c5ccccc5)nc4c3)c3c(N)nccn32)C1 [Linsitinib] (partner 1 µM)
value: 0.701

###

- Test system: NCI-H1915
- measurement_description: relative viability (nuclei count vs DMSO), 5 days (fraction); higher = more cells survive
- assay_context: first compound 0.5 µM

compound: COc1cc2nccc(Oc3ccc(NC(=O)Nc4cc(C)on4)c(Cl)c3)c2cc1OC [Tivozanib] + Cc1nc(NC(=O)N2CCC[C@H]2C(N)=O)sc1-c1ccnc(C(C)(C)C(F)(F)F)c1 [Alpelisib] (partner 2 µM)
relative viability: 0.961
--
compound: COc1cc2nccc(Oc3ccc(NC(=O)Nc4cc(C)on4)c(Cl)c3)c2cc1OC [Tivozanib] + CS(=O)(=O)CCNCc1ccc(-c2ccc3ncnc(Nc4ccc(OCc5cccc(F)c5)c(Cl)c4)c3c2)o1 [Lapatinib] (partner 2 µM)
relative viability: 0.882
--
compound: Nc1ccn([C@@H]2O[C@H](CO)[C@@H](O)[C@@H]2O)c(=O)n1 [Cytarabine] + CC(=O)c1c(C)c2cnc(Nc3ccc(N4CCNCC4)cn3)nc2n(C2CCCC2)c1=O [Palbociclib] (partner 0.5 µM)
relative viability: 0.2
--
compound: COc1cc2nccc(Oc3ccc(NC(=O)Nc4cc(C)on4)c(Cl)c3)c2cc1OC [Tivozanib] + C[C@]1(O)C[C@@H](c2nc(-c3ccc4ccc(-c5ccccc5)nc4c3)c3c(N)nccn32)C1 [Linsitinib] (partner 1 µM)
relative viability: 1.05
--
compound: COc1cc2nccc(Oc3ccc(NC(=O)Nc4cc(C)on4)c(Cl)c3)c2cc1OC [Tivozanib] + C[C@@H](Oc1cc(-c2cnn(C3CCNCC3)c2)cnc1N)c1c(Cl)ccc(F)c1Cl [Crizotinib] (partner 1 µM)
relative viability: 0.857

###

The following molecules are shown together with reported relative viability values.
- Tested on: EPLC-272H
- measurement_description: relative viability (nuclei count vs DMSO), 5 days (fraction); higher = more cells survive
- assay_context: first compound 0.01581 µM

molecule: COc1cc2nccc(Oc3ccc(NC(=O)Nc4cc(C)on4)c(Cl)c3)c2cc1OC [Tivozanib] + C[C@@H](Oc1cc(-c2cnn(C3CCNCC3)c2)cnc1N)c1c(Cl)ccc(F)c1Cl [Crizotinib] (partner 1 µM)
relative viability: 0.829
//
molecule: COc1cc2nccc(Oc3ccc(NC(=O)Nc4cc(C)on4)c(Cl)c3)c2cc1OC [Tivozanib] + O=C(CCCCCCC(=O)Nc1ccccc1)NO [Vorinostat] (partner 1 µM)
relative viability: 0.617
//
molecule: Nc1ccn([C@@H]2O[C@H](CO)[C@@H](O)[C@@H]2O)c(=O)n1 [Cytarabine] + CC(=O)Nc1cccc(-n2c(=O)n(C3CC3)c(=O)c3c(Nc4ccc(I)cc4F)n(C)c(=O)c(C)c32)c1 [Trametinib] (partner 0.02 µM)
relative viability: 0.246
//
molecule: Nc1ccn([C@@H]2O[C@H](CO)[C@@H](O)[C@@H]2O)c(=O)n1 [Cytarabine] + Cc1cc(Nc2cc(N3CCN(C)CC3)nc(Sc3ccc(NC(=O)C4CC4)cc3)n2)n[nH]1 [Tozasertib] (partner 0.1 µM)
relative viability: 0.199

###

The following molecules are shown together with reported relative viability values.
- Tested on: NCI-H23
- measurement_description: relative viability (nuclei count vs DMSO), 5 days (fraction); higher = more cells survive
- assay_context: first compound 0.05 µM
metric_name: relative viability

molecule: Nc1ccn([C@@H]2O[C@H](CO)[C@@H](O)[C@@H]2O)c(=O)n1 [Cytarabine] + NC(=O)Nc1cc(-c2cccc(F)c2)sc1C(=O)N[C@H]1CCCNC1 [AZD7762] (partner 0.2 µM)
value: 0.202

molecule: Nc1ccn([C@@H]2O[C@H](CO)[C@@H](O)[C@@H]2O)c(=O)n1 [Cytarabine] + COc1cccc2cc(-c3nc([C@H]4CC[C@H](C(=O)O)CC4)n4ncnc(N)c34)[nH]c12 [OSI-027] (partner 0.5 µM)
value: 0.507

molecule: COc1cc2nccc(Oc3ccc(NC(=O)Nc4cc(C)on4)c(Cl)c3)c2cc1OC [Tivozanib] + CC(=O)c1c(C)c2cnc(Nc3ccc(N4CCNCC4)cn3)nc2n(C2CCCC2)c1=O [Palbociclib] (partner 0.5 µM)
value: 0.488

###

- Tested on: NCI-H1703
- measurement_description: relative viability (nuclei count vs DMSO), 5 days (fraction); higher = more cells survive
- assay_context: first compound 5 µM
The following molecules are shown together with reported relative viability values.

molecule: O=C(O)CCCCC(CCSCc1ccccc1)SCc1ccccc1 (stereo not drawn) [CPI-613] + O=C(c1cc(Cc2n[nH]c(=O)c3ccccc23)ccc1F)N1CCN(C(=O)C2CC2)CC1 [Olaparib] (partner 8 µM)
relative viability: 0.411
//
molecule: O=C(O)CCCCC(CCSCc1ccccc1)SCc1ccccc1 (stereo not drawn) [CPI-613] + CS(=O)(=O)CCNCc1ccc(-c2ccc3ncnc(Nc4ccc(OCc5cccc(F)c5)c(Cl)c4)c3c2)o1 [Lapatinib] (partner 2 µM)
relative viability: 0.943
//
molecule: O=C(O)CCCCC(CCSCc1ccccc1)SCc1ccccc1 (stereo not drawn) [CPI-613] + C[C@@H](Oc1cc(-c2cnn(C3CCNCC3)c2)cnc1N)c1c(Cl)ccc(F)c1Cl [Crizotinib] (partner 1 µM)
relative viability: 0.582

###

- Tested on: NCI-H322M
- measurement_description: relative viability (nuclei count vs DMSO), 5 days (fraction); higher = more cells survive
- assay_context: first compound 0.01581 µM

compound: Nc1ccn([C@@H]2O[C@H](CO)[C@@H](O)[C@@H]2O)c(=O)n1 [Cytarabine] + Nc1nc2[nH]cc(CCc3ccc(C(=O)N[C@@H](CCC(=O)O)C(=O)O)cc3)c2c(=O)[nH]1 [Pemetrexed] (partner 0.2 µM)
relative viability: 0.628
//
compound: COc1cc2nccc(Oc3ccc(NC(=O)Nc4cc(C)on4)c(Cl)c3)c2cc1OC [Tivozanib] + CC(C)C[C@H](NC(=O)[C@H](Cc1ccccc1)NC(=O)c1cnccn1)B(O)O [Bortezomib] (partner 0.002 µM)
relative viability: 1.21
//
compound: Nc1ccn([C@@H]2O[C@H](CO)[C@@H](O)[C@@H]2O)c(=O)n1 [Cytarabine] + Cc1cc(Nc2cc(N3CCN(C)CC3)nc(Sc3ccc(NC(=O)C4CC4)cc3)n2)n[nH]1 [Tozasertib] (partner 0.1 µM)
relative viability: 0.416

###

The following compounds are shown together with reported relative viability values.
- Test system: NCI-H1648
- measurement_description: relative viability (nuclei count vs DMSO), 5 days (fraction); higher = more cells survive
- assay_context: first compound 0.1581 µM

compound: COc1cc2nccc(Oc3ccc(NC(=O)Nc4cc(C)on4)c(Cl)c3)c2cc1OC [Tivozanib] + O=C(CCCCCCC(=O)Nc1ccccc1)NO [Vorinostat] (partner 1 µM)
study_system: NCI-H1648
relative viability: 0.796

compound: Nc1ccn([C@@H]2O[C@H](CO)[C@@H](O)[C@@H]2O)c(=O)n1 [Cytarabine] + Nc1nc2[nH]cc(CCc3ccc(C(=O)N[C@@H](CCC(=O)O)C(=O)O)cc3)c2c(=O)[nH]1 [Pemetrexed] (partner 0.2 µM)
study_system: NCI-H1648
relative viability: 0.653

compound: COc1cc2nccc(Oc3ccc(NC(=O)Nc4cc(C)on4)c(Cl)c3)c2cc1OC [Tivozanib] + COc1cccc2cc(-c3nc([C@H]4CC[C@H](C(=O)O)CC4)n4ncnc(N)c34)[nH]c12 [OSI-027] (partner 0.5 µM)
study_system: NCI-H1648
relative viability: 0.218

compound: COc1cc2nccc(Oc3ccc(NC(=O)Nc4cc(C)on4)c(Cl)c3)c2cc1OC [Tivozanib] + NC(=O)Nc1cc(-c2cccc(F)c2)sc1C(=O)N[C@H]1CCCNC1 [AZD7762] (partner 0.2 µM)
study_system: NCI-H1648
relative viability: 0.585

compound: COc1cc2nccc(Oc3ccc(NC(=O)Nc4cc(C)on4)c(Cl)c3)c2cc1OC [Tivozanib] + Nc1ncn([C@H]2C[C@H](O)[C@@H](CO)O2)c(=O)n1 [Decitabine] (partner 2 µM)
study_system: NCI-H1648
relative viability: 0.451

compound: Nc1ccn([C@@H]2O[C@H](CO)[C@@H](O)[C@@H]2O)c(=O)n1 [Cytarabine] + CC(=O)c1c(C)c2cnc(Nc3ccc(N4CCNCC4)cn3)nc2n(C2CCCC2)c1=O [Palbociclib] (partner 0.5 µM)
study_system: NCI-H1648
relative viability: 0.308

Data credit: the supplement of paper PMC10307832
